- protocolSummary: protein stability index of a GFP-peptide fusion (GPS, HEK-293T) (PSI 1-6); higher = more stable;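 note: 24-mer peptide tiles fused after GFP, lentivirally expressed, FACS-sorted into six equal bins by GFP/DsRed ratio, decoded by Illumina sequencing, PSI is the read-weighted mean bin number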
- conditionDetails: treatment: MLN4924 1 uM, 8 h; c terminus: a fixed tail appended
Hi there, I'd appreciate the recorded protein stability index for every entry that follows.
Respond using a number only.

For this sequence ( EGCGPPLRRWLRANLAASGGYAIA [TSPAN10] ), measured protein stability index is 2.52

Record QKSPWCEARSLEHTLPVNRETLKR [ESR2] . Reported protein stability index: 4.41

# protein stability index of PETQARLEALLEAAGIGKLSTADG [ANKRD17] = 3.18

Recorded protein stability index (sequence VSSLSEVEEVDMAEEFEQPTLSCE [ELOA2] ): 5.52

So for SGVVRIWDLRDQSVVRDLKGYPDG [TLE6] , the logged protein stability index turned out to be 3.42

Record ALVVALWGPLQDSLEHTLRVAIAH [TSPAN10] . Reported protein stability index: 3.05

Please fill in: protein stability index reported for AMGHSQDRLTTFQENQARTHVLSK [LRRC45] = 4.7

Recorded result, IERLTREVEATRRALIDRMVNLHQ [DDIT3] , protein stability index: 2.61

The sequence identified as DEDDSTSRFSSSTEQSSASRLMRR [DVL3] registered its protein stability index at 5.36

====

- protocolSummary: protein stability index of a GFP-peptide fusion (GPS, HEK-293T) (PSI 1-6); higher = more stable
- conditionDetails: treatment: DMSO; c terminus: a fixed tail appended
Consider the following sequences; for each one, report its protein stability index.
I'd appreciate a reply containing only the number, no unit.

protein stability index in this record for AWKELDRNYLNYGEEGAPGKWQQQ [CHGB] : 3.47

get_value(item= FLQKSSVGITVLNLCALSVDRYRA [EDNRA] , readout=protein stability index) returns 2.69

Entry LFPPKAKSNQPKSLEDLIFESLPE [ATE1] , protein stability index reported as 3

Record HPVFYQGTYSQALNDAKRELRFLL [FAF2] , field protein stability index: 2.26

So for IKENAQDTMRQINKKGFWSYGPVI [TOR1AIP2] , the logged protein stability index turned out to be 2.51

The sequence IQELELQAQIHGLPVPPTPGLLSL [TFE3] showed protein stability index equal to 2.62

protein stability index for QWFAMLRAEQDSEVGPQEINKEEL [GMCL1] is 3.95

Sample GLQVEGLRRRLEELQQELSLKDQE [LRRC45] ; protein stability index observed: 4.47

# protein stability index (sequence: ACHPFLLGPPLVRKRIHDSRVAGF [TOR1AIP2] ) is 2.51

The value of protein stability index measured for the sequence PNRAGAPGESLECPAELRPQVPQP [TRAF3IP2] turned out to be 4.97

Entry LAEYCVKTKAPAPDEGSDLFYDDY [CDC34] — recorded protein stability index = 4.12

Briefly, protein stability index measured for LVVNIDNAKLASDDFRSKYQTEQS [KRT34] : 3.65

protein stability index in this record for MHLARCRWASAPPLYTLIDVLKYS [ZSWIM9] : 2.94

Recorded protein stability index (sequence HRRELESSGAGSSPPAAPCPPPPG [ZBED3] ): 5.12

Lookup result for EQGLSALHLAAQGRHAQTVETLLR [RIPK4] ; measured protein stability index: 3.71

Lab book: protein stability index of DVKRLGKQNARFLTSMRRLSSIKR [STX11] noted as 2.9

Please fill in: protein stability index reported for LGAGSDLKDFTLNETVNSIFAQGA [ADAMTSL2] = 3.12

Quick note, protein stability index for QEVVELPVTERQIEREHLIQLRRW [TBC1D10A] landed at 4.05

Record summary for QEELNRKAEELDRRERELQHAALG [SCAMP3] : reported protein stability index = 5.39

Entry under test: MQFLIRSHECKPEGYEFCHNRKVL [PPEF2] . Its protein stability index was 2.28

sequence PLLCPSYQSYFKTIEELQQKILCA [KRT34] , protein stability index observed: 4

The reported value for AYDFHGSWEKVTGHNSPLYKRQEE [CHIT1] in terms of protein stability index is 4.33

Looking up KNSDGMEAAGVQIQMVNESLGYVR [CD207] , I found its protein stability index recorded as 3.83

For this sequence ( LPDPNNYYHRRNEMTTTDDLDFKH [CPXM2] ), measured protein stability index is 4.55

The sequence identified as FTTNKCKGFGFVTMTNYDEAAMAI [ELAVL3] registered its protein stability index at 2.49

Input CATVGNRGFVFGGRYRDARMNDLH [KLHDC2] . Output protein stability index: 2.19

GVIQSVIGWKTVRMYPFQIHSIAL [CDS2] yielded protein stability index of 2.81

The sequence listed as ISVLQQQGSLSNTYLSKVDPDGKK [FBXO33] shows protein stability index equal to 4.45

Input YRWQGRRWEPSGKAEPRLPDRVYI [TBX6] . Output protein stability index: 2.11

The reported protein stability index of the sequence REQMEQMKQRIAEENIMKSNIDKK [FAM50A] was 5.08

# protein stability index (sequence: IRVWFQNKRCKDKKKSILMKQLQQ [ISL2] ) is 2.08

EEKQRELARKGSLKNGSMGSPVNQ [FAM219A] yielded protein stability index of 5.33

# protein stability index of MQEDRDGSCSTVGGVGYGDSKDCI [ZNF277] = 5.04

Item: KEQDGREVDWEYFYGLLFTSENLK [DFFB] | protein stability index: 2.62

According to the records, this sequence EHFGIVPLEAMYMQCPVIAVNSGG [ALG2] displays protein stability index of 2.33

protein stability index measured on FQEAAGPREALSRLQELCHGWLRP [ZNF263] = 2.66

For reference, reported protein stability index for EEGLEARGEALGLVGAQAPATEEQ [MAGEA3] stands at 5.57

In plain terms, CAMEDHNCEQLCVNVPGSFVCQCY [MATN2] has a documented protein stability index of 2.5

The sequence listed as NYVLEEVDEAAAESPSFLSLRKGA [NCK2] has a reported protein stability index of 4.75

Noted for KFPGQSSFLWQRGRKFLQKHLNAS [TOR1AIP2] : its protein stability index reads 2.47

sequence SRKVTTNKLLLSIIILLELAILGG [VTI1B] , protein stability index observed: 2.98

GET /value?item= EAEKDGVKVPTTLAEYCIKTKVPS [UBE2R2] &field=protein stability index returns 5.08

====

- protocolSummary: protein stability index of a GFP-peptide fusion (GPS, HEK-293T) (PSI 1-6); higher = more stable
- conditionDetails: treatment: MLN4924 1 uM, 8 h; c terminus: a fixed tail appended
Returns Fulfilled if the recorded protein stability index is greater than or equal to 3, and Not fulfilled otherwise.

### Prompt State whether the measured protein stability index reaches 3, counting equality as reaching it, for LNLGPALSAALASSQKQHSFTSSD [C8orf76]
### Response Fulfilled

### Prompt Is protein stability index for SPRDLQFSEIRETSAKVNWMPPPS [TNXB] at or above 3?
### Response Fulfilled

### Prompt Form field: protein stability index at least 3? Entry: PYQALRLWARGTWTQATGLGCALL [SOAT2]
### Response Not fulfilled

### Prompt Hello, I need to know if QQLRRGRYVEFNLLYDRGTKFGLF [CPOX] has measured protein stability index not below 3. Thanks!
### Response Not fulfilled

====

- protocolSummary: protein stability index of a GFP-peptide fusion (GPS, HEK-293T) (PSI 1-6); higher = more stable
- conditionDetails: treatment: DMSO; c terminus: a fixed tail appended
measuredAttribute: protein stability index
Give the figure by itself; no unit, no explanation.

The sequence listed as HTEDFQKEEGTVNGASWHTVAGSL [CPXM2] has a reported protein stability index of 4.63

Looking up VGAAETTLTELRRTVQSLEIDLDS [KRT18] , I found its protein stability index recorded as 4.51

Lab note: measured protein stability index of KVPAPKDVLAHQVPNAKKLRRKEQ [NOP53] was 4.76

For reference, reported protein stability index for EMCHKPDVELLQDLGDIVARSESV [TRIM43] stands at 4.66

Given item EDDVSFLMKHKSRKRRLFCTMEPE [TRIM35] , the value recorded as its protein stability index is 3.61

Record SRSRSRSRSNSRSRSYSPRRSRGS [SRSF1] . Reported protein stability index: 5.37

So, SSSRPISPGLSYASHTVGFTPPTS [CCDC6] ? Its protein stability index was 3.54

Per the records, this sequence ( FAKAGDTLSGTCLLIANKRQSYDI [CARM1] ) has protein stability index equal to 2.48

Entry SWCLKRYDLEYWAFHDGQRSRLRP [TRIM14] , protein stability index reported as 2.18

Sample AAAQAPENFQEGKDMSESQDEVPD [TAF7L] ; protein stability index observed: 5.62

Reported protein stability index ( DALNRRKAQLLARVNKEHEHKLKV [TRIM9] ) = 3.47

Notebook: AEKWQKEKDRIKSFTTNEKAILEQ [TRIM29] , protein stability index read as 4.76

What the record says about QEYESIDPGQQFTWEHSNLEVNKP [PTPRD] : protein stability index is 4.94

The value of protein stability index measured for the sequence VLNDRFQRQKYLSLQQMQELSNIL [NANOGP8] turned out to be 2.52

The reported protein stability index of the sequence LLDEEEALAKKFIDKNTQLTLQVY [TRIM14] was 2.53

Entry RLRASFSRKPSLKGNREDSARMSA [PLEKHN1] — recorded protein stability index = 4.08

// sample REVRQFQFTAWPDHGVPEHPTPFL [PTPRD] , its protein stability index was 2.76

Lab note: measured protein stability index of KLTDKHETVVSYLPLSHIAAQMMD [ACSBG2] was 2.66

The reported value for SKIPFKILSGHEHAVSTCHFCVDD [WDR88] in terms of protein stability index is 2.91

The measured protein stability index associated with VALLNKTNVKFLAITTDCLQILAY [CTNNB1] reads 2.86

Noted for TAAGGQGGPGGPGSDKQQQQQHIE [NR2F2] : its protein stability index reads 5.34

protein stability index in this record for GLQEEPVEGFRVTLVDEGDLYNWE [CDC34] : 4.26

// protein stability index lookup, sequence = GSRISVSRSTSFRGGMGSGGLATG [KRT18] , result: 3.65

The sequence EPTAAATARRSKRERREEDRAPAE [PWWP2B] showed protein stability index equal to 5.7

The sequence identified as IISAHIHPVCSLCWSRDGHKLVSA [RBBP5] registered its protein stability index at 2.45

Entry LSWELLDSHLGGNARGMGIRSPRP [CTBP1-DT] , protein stability index reported as 3.18

Given item TGIEESTDGMILGPEDLSYQIYDV [LARP4] , the value recorded as its protein stability index is 3.76

Entry GGSSGQVTSNGSIGRDPPAETQPQ [CLPTM1] ; protein stability index = 5.47

Recorded result, RLSSSLQGSAVTLKTSKMALSPSA [CDC14A] , protein stability index: 3.5

Consider CFVEFHEHRHAAAALAAMNGRKIM [TIA1] . Its measured protein stability index is 2.71

LSVLPQLEFKLKSNDNEERLQVVK [PDS5B] has a reported protein stability index of 3.77

The recorded protein stability index for AWEDSHGSQDGHFVLSCSYDGLDC [SCNN1D] is 3.73

get_value(item= PAMVRISKPKTFQAYLDDCHRRYS [YPEL3] , readout=protein stability index) returns 2.96

So for AVCKATTHEVMGPKKKHLDYLIQA [SNAP91] , the logged protein stability index turned out to be 3.06

// EELSVLEVFEGREDSIFGDPKKLL [MAGEA6] : protein stability index value = 4.22

Consider ELGSEVDITEGDRKPDYTAYVAMI [ATF4] . Its measured protein stability index is 3.46

Kindly note the recorded protein stability index for GIAHKIEAGNEFKNIFGTPEFVAP [DAPK3] , which is 3.44

Form field protein stability index, entry QTVPKRIPERLSIFCRDTQTVFQK [IQUB] : 2.56

Consider VCGGAQRPGHLPGLLLGSHGLLGS [CDC25B] . Its measured protein stability index is 1.9

Consider LPLMDLCRRSVRLALGRERLGEIH [SPSB1] . Its measured protein stability index is 2.56

The sequence listed as ICSLICLLIYTVKIRRFNKAKPEP [TMEM192] shows protein stability index equal to 2.24

For reference, reported protein stability index for RQGPKEPPRKSGSFHSSGEKQKQP [PBXIP1] stands at 4.86

GET /value?item= YLGLPRLEFYRYYQQLKLEGPGEQ [SLC29A1] &field=protein stability index returns 2.54

Per the record, GLLETEPLQGTDEDAVASADFSSM [TPD52L1] has protein stability index of 5.34

For record DQDGDQAPEYRGRTELLKDAIGEG [MOG] the listed protein stability index is 5.33

The measured protein stability index associated with APGPSPADKKRSGKKKISKADIGA [WAS] reads 5.02

Measured protein stability index of KSPQFNRYFYLLENIAWVKSYNIC [PDS5B] : 2.17

The sequence identified as ASTKMCEQALGKGCGADSKKKRPP [PLK2] registered its protein stability index at 4.58

Lab book: protein stability index of GRASRFLQSISWDPEDFEDAWKRP [TLE6] noted as 3.15

Please fill in: protein stability index reported for GGGGSRSISASSARFVSSGSGGGY [KRT15] = 4.23
